Measured target: feline FcRn complex (FcRn-α subunit and β-microglobulin), biotin labeled (feline)
Experiment notes: SPR, pH 7.4
Quantity kind: pKd
Interpret pKd as the negative base-10 log of the concentration measured in mol/L.

feline IgG1a S252Y/Q311W/D312P (antibody, part only; not given: Variable domains, not shown: another chain or arm of the molecule) constant: ASTTAPSVFPLAPSCGTTSGATVALACLVLGYFPEPVTVSWNSGALTSGVHTFPAVLQASGLYSLSSMVTVPSSRWLSDTFTCNVAHPPSNTKVDKTVRKTDHPPGPKPCDCPKCPPPEMLGGPSIFIFPPKPKDTLYISRTPEVTCLVVDLGPDDSDVQITWFVDNTQVYTAKTSPREEQFNSTYRVVSVLPILHWPWLKGKEFKCKVNSKSLPSPIERTISKAKGQPHEPQVYVLPPAQEELSRNKVSVTCLIKSFHPPDIAVEWEITGQPEPENNYRTTPPQLDSDGTYFVYSKLSVDRSHWQRGNTYTCSVSHEALHSHHTQKSLTQSPGK; 5.95

// pKd lookup, binder = feline IgG1a L314K (antibody, part only; not given: variable domains and light chain, not shown: another chain or arm of the molecule) constant: ASTTAPSVFPLAPSCGTTSGATVALACLVLGYFPEPVTVSWNSGALTSGVHTFPAVLQASGLYSLSSMVTVPSSRWLSDTFTCNVAHPPSNTKVDKTVRKTDHPPGPKPCDCPKCPPPEMLGGPSIFIFPPKPKDTLSISRTPEVTCLVVDLGPDDSDVQITWFVDNTQVYTAKTSPREEQFNSTYRVVSVLPILHQDWKKGKEFKCKVNSKSLPSPIERTISKAKGQPHEPQVYVLPPAQEELSRNKVSVTCLIKSFHPPDIAVEWEITGQPEPENNYRTTPPQLDSDGTYFVYSKLSVDRSHWQRGNTYTCSVSHEALHSHHTQKSLTQSPGK , result: 7.38
